- Target under test: T1, 4H2610-bN
- T1 chain: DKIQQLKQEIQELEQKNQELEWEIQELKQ
- Procedure text: two-hybrid library CCNG1;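 also: natural log of median RNA to DNA barcode read ratio; higher means stronger binding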
Measurement name: interaction score

IN: Can you share its interaction score? I mean this binder: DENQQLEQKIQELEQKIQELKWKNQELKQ [4H1328-bN]
OUT: 0.84

IN: Can you share its interaction score? I mean this binder: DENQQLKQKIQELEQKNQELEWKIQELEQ [4H1845-bN]
OUT: -0.755

IN: Can you share its interaction score? I mean this binder: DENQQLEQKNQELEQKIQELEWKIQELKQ [4H1446-bN]
OUT: 0.732

IN: Can you share its interaction score? I mean this binder: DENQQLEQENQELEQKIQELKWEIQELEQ [4H1193-bN]
OUT: -2.18

IN: Can you share its interaction score? I mean this binder: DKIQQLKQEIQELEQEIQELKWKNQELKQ [4H2576-bN]
OUT: -0.395

A: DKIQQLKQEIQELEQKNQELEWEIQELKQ [4H2610-bN]
B: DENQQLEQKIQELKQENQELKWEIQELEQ [4H1369-bN]
IN: Which has the smaller recorded interaction score, A or B ? In your reply, give the label of the chosen option.
OUT: B
(B: -0.97, A: 0.245)

Measured values drawn from paper PMC10397247 for this set.
